Each entry below lists one item and its recorded Cocklebur plant response rating value.
# Test system: cocklebur
# Method description: Test B pre/postemergence cocklebur
# Assay type: in vivo, Xanthium strumarium
# Run parameters: Rate 125 g/ha, Postemergence; scale 0 to 10
Observation type: Cocklebur plant response rating

- CCC(=O)Cn1c(=O)on(C(=O)N(c2ccc(F)cc2)C(C)C)c1=O: 0
- COCCOCn1c(=O)on(C(=O)N(c2ccc(F)cc2)C(C)C)c1=O: 0
- CCC(C)N(C(=O)n1oc(=O)n(-c2ccccc2C)c1=O)c1ccc(F)cc1 (centres unmarked): 1
- Cc1ccccc1-n1c(=O)on(C(=O)N(c2ccc(-c3ccccc3)cc2)C(C)C)c1=O: 0
- CC(C)N(C(=O)n1oc(=O)n(CCC2CCCCC2)c1=O)c1ccc(F)cc1: 0

* * *

# Test system: wheat
# Method description: Test B pre/postemergence wheat
# Format: in vivo, Triticum aestivum
# Run parameters: Postemergence, Rate 62 g/ha; scale 0 to 10, 0 is no effect, 10 is complete control
Each entry below lists one item and its recorded Plant response rating, Wheat value.
Observation type: Plant response rating, Wheat

* CC[C@@H](C)n1c(=O)on(C(=O)N(c2ccc(Cl)cc2)C(C)C)c1=O [Compound 665] | 0
* CC(=O)NCn1c(=O)on(C(=O)N(c2ccc(F)cc2F)C(C)C)c1=O [Compound 622] | 0
* CC(C)N(C(=O)n1oc(=O)n(CC(=O)C2CCC2)c1=O)c1ccc(Cl)cc1 [Compound 643] | 0
* CCOC(=O)CC(C(=O)OCC)n1c(=O)on(C(=O)N(c2ccccc2)C(C)C)c1=O (stereo not drawn) [Compound 614] | 0
* CC(C)N(C(=O)n1oc(=O)n(CNC(=O)c2ccccc2)c1=O)c1ccc(F)cc1F [Compound 619] | 0
* CCCCCn1c(=O)on(C(=O)N(c2ccc(F)cc2F)C(C)C)c1=O [Compound 636] | 0

* * *

Each entry below lists one item and its recorded Giant foxtail plant response rating value.
# Tested on: giant foxtail
# Method description: Test B pre/postemergence giant foxtail
# Type: in vivo, Setaria faberii
# Run parameters: Rate 62 g/ha, Postemergence; scale of 0 to 10 where 0 is no effect and 10 is complete control
Observation type: Giant foxtail plant response rating

- CC(C)N(C(=O)n1oc(=O)n(-c2cnn(C)c2Cl)c1=O)c1ccccc1: 2
- Cc1ccccc1-n1c(=O)on(C(=O)N(c2ccc(-c3ccccc3)cc2)C(C)C)c1=O: 0
- Cc1ccccc1Cn1c(=O)on(C(=O)N(c2ccc(Cl)cc2)C(C)C)c1=O: 0
- CC(C)N(C(=O)n1oc(=O)n(C(C)Cl)c1=O)c1ccc(F)cc1 (centres unmarked): 5
- CC(C)N(C(=O)n1oc(=O)n(CCCC(F)(F)F)c1=O)c1ccc(F)cc1: 3
- CC(C)N(C(=O)n1oc(=O)n(CC#N)c1=O)c1ccc(F)cc1F: 0
- CC(C)N(C(=O)n1oc(=O)n(C(C)CCl)c1=O)c1ccccc1 (centres unmarked): 6
- CC(C)N(C(=O)n1oc(=O)n(CCC#N)c1=O)c1ccc(F)cc1F: 4

* * *

# System: purple nutsedge
# Method description: Test B pre/postemergence purple nutsedge
# Type: in vivo, Cyperus rotundus
# Run parameters: Preemergence, Rate 500 g/ha; scale 0 to 10, 0 is no effect, 10 is complete control
# Protocol: […] At the same time, these crop and weed species were also treated with postemergence applications of test chemicals formulated in the same manner. […] Treated plants and controls were maintained in a greenhouse for twelve to sixteen days, after which all species were compared to controls and visually evaluated. […]
Observation type: Nutsedge plant response rating

- CC(C)N(C(=O)n1oc(=O)n(C)c1=O)c1ccccc1: 8
- CSCCn1c(=O)on(C(=O)N(c2ccccc2)C(C)C)c1=O: 0
- CC(C)N(C(=O)n1oc(=O)n(CCC#N)c1=O)c1ccc(F)cc1F: 0
- CC(C)N(C(=O)n1oc(=O)n(CCl)c1=O)c1ccc(F)cc1F: 0
- CC(C)N(C(=O)n1oc(=O)n(C(C)C#N)c1=O)c1ccc(Cl)cc1 (centres unmarked): 0

Ref: patent US6737383B1
